Assay: Concentration in mouse gastric mucin after a single oral dose
Type: in vivo
Settings: female, C57/BL6, mouse, gastric mucin, po, 10 mg/kg, mouse, 0.25 h after single dose 10 mg/kg PO; read-out: concentration in gastric mucin, Mean
endpoint.name: concentration at 0.25 h (ng/g)
Answers are plain numbers, in ng/g.

Query string: Any idea what its concentration at 0.25 h is? The molecule is CCCCCC[C@@H](CO)NCc1c[nH]c2c(N)ncnc12 [Hexyl-SerMe-Immucillin A]
Result string: 56900

---

Experiment: Concentration in mouse gastric mucin after a single oral dose
Assay type: in vivo
Settings: female, C57/BL6, mouse, gastric mucin, po, 10 mg/kg, mouse, 0.50 h after single dose 10 mg/kg PO; read-out: concentration in gastric mucin, Animal-1
endpoint.name: concentration at 0.5 h (ng/g)
Numbers only, in ng/g.

Query string: Any idea what its concentration at 0.5 h is? The molecule is `CCCCCC[C@@H](CO)NCc1c[nH]c2c(N)ncnc12`
Result string: 46200
